Experiment: In vitro metabolic stability in human liver microsome
Format: in vitro ADME
Details: human liver microsomes
Recorded CLint Human by entry
A number alone suffices; assume μL/min/mg proteins.

Entry N[C@@H]1c2ccccc2CC12CCN(c1nc3[nH]nc(C4(c5cccc(F)c5)CC4)c3c(=O)[nH]1)CC2 , CLint Human reported as 19.5

Entry Nc1ccc(C2(c3n[nH]c4nc(N5CCC6(CC5)Cc5ccccc5[C@H]6N)[nH]c(=O)c34)CC2)cc1 , CLint Human reported as 9.2

Entry N[C@@H]1c2ccccc2CC12CCN(c1nc3[nH]nc(C4(c5ccc(F)cc5)CC4)c3c(=O)[nH]1)CC2 , CLint Human reported as 8.6

Entry N[C@@H]1c2ccccc2CC12CCN(c1nc3[nH]nc(C4(c5ccc(O)cc5)CC4)c3c(=O)[nH]1)CC2 , CLint Human reported as 10.4

Entry N[C@@H]1c2ccccc2CC12CCN(c1nc3[nH]nc(C4(c5cccc(C(F)(F)F)c5)CC4)c3c(=O)[nH]1)CC2 , CLint Human reported as 9.2

Entry Cn1c(N2CCC3(CC2)Cc2ccccc2[C@H]3N)nc2[nH]nc(C3(c4ccccc4)CC3)c2c1=O , CLint Human reported as 95.2

Entry N[C@@H]1c2ccccc2CC12CCN(c1nc3[nH]nc(C4(c5ccc(C(F)(F)F)cc5)CC4)c3c(=O)[nH]1)CC2 , CLint Human reported as 6.2

Entry CC(C)(c1ccccc1)c1n[nH]c2nc(N3CCC4(CC3)Cc3ccccc3[C@H]4N)[nH]c(=O)c12 , CLint Human reported as 50.0

Entry N[C@@H]1c2ccccc2CC12CCN(c1nc3[nH]nc(C4(Cc5ccccc5)CC4)c3c(=O)[nH]1)CC2 , CLint Human reported as 182.7

Entry N[C@@H]1c2ccccc2CC12CCN(c1nc3[nH]nc(C4(c5csnn5)CC4)c3c(=O)[nH]1)CC2 , CLint Human reported as 11.8

Entry N[C@@H]1c2ccccc2CC12CCN(c1nc3[nH]nc(C4(c5ccc6c(c5)OCO6)CC4)c3c(=O)[nH]1)CC2 , CLint Human reported as 16.5

====

Biological target: SHP2 (Homo sapiens, UniProt Q06124)
Sequence (Q06124 whole entry): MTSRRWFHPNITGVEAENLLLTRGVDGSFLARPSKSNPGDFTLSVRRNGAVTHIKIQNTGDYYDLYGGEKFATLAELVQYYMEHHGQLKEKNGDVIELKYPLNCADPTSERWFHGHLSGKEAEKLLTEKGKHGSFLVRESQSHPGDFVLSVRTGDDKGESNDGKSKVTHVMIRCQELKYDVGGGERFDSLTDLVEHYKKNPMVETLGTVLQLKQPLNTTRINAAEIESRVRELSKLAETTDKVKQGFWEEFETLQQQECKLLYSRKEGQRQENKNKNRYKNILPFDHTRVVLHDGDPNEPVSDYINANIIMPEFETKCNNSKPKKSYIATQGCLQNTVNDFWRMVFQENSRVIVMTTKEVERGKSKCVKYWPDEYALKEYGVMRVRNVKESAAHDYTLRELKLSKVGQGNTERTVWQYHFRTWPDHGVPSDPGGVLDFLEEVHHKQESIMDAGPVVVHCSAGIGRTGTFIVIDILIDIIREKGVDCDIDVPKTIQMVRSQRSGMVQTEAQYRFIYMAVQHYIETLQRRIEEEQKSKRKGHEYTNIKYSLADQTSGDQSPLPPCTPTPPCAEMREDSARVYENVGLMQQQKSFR
Test: SHP2 allosteric inhibitor enzyme activity assay (DiFMUP fluorescence)
Format: biochemical
Conditions: class symbols
pIC50: −log10 of the molar value.
Recorded pIC50 by entry

SMILES_CODE: COc1ccccc1C1(c2n[nH]c3nc(N4CCC5(CC4)CO[C@@H](C)[C@H]5N)[nH]c(=O)c23)CC1
pIC50: 7.22 to 7.70
//
SMILES_CODE: N[C@@H]1c2ccccc2CC12CCN(c1nc3[nH]nc(C4=CCNc5ccccc54)c3c(=O)[nH]1)CC2
pIC50: ≥ 7.70
//
SMILES_CODE: COc1ccc2c(c1)[C@@H](N)C1(CCN(c3nc4[nH]nc(C5(c6ccccc6)CC5)c4c(=O)[nH]3)CC1)C2
pIC50: ≥ 7.70

Entry CC1(C)C=C(c2n[nH]c3nc(N4CCC5(CC4)Cc4ccccc4[C@H]5N)[nH]c(=O)c23)c2cnn(CC(F)(F)F)c2C1 , pIC50 reported as ≥ 7.70

Entry CC1(C)C=C(c2n[nH]c3nc(N4CCC5(CC4)Cc4ccccc4[C@H]5N)[nH]c(=O)c23)c2cnc(C(F)(F)F)nc2C1 , pIC50 reported as ≥ 7.70

Entry CC(=O)c1cccc(C2(c3n[nH]c4nc(N5CCC6(CC5)Cc5ccccc5[C@H]6N)[nH]c(=O)c34)CC2)c1 , pIC50 reported as ≥ 7.70

Entry N[C@@H]1c2ccccc2CC12CCN(c1cnc3c(C4(c5ccccc5)CC4)n[nH]c3n1)CC2 , pIC50 reported as ≥ 7.70
